Hi there, I'd appreciate the recorded IC50 for every entry that follows.
Tested on: THP-1 cells
Test: TNFα generation assay
Format: cell-based, human
Conditions: Homo sapiens, THP-1, THP-1 cells; Table 22; read-out: IC50 in TNFα generation assay
Protocol: THP-1 cells (2×10^5 cells/ml), which were human monocytoid cells, were cultured in the presence of 10 ng/ml IFN-γ (Roche) for 2 days, so that the cells were induced to differentiate into macrophage-like cells. […] Thereafter, the cultured solution was recovered, and the amount of TNFα secreted into the culture solution was then measured by the ELISA method (Roche/R & D Systems) or the AlphaLISA method (PerkinElmer).

Prompt: Print THP-1 cells IC50 for NC(=O)c1cc(F)c(NC2CCCCC2N)nc1Nc1cncc(-c2ccc3cccnc3c2)c1 (stereo not drawn) .
Response: 65 to 130 nM

Prompt: Print THP-1 cells IC50 for NC(=O)c1cc(F)c(N[C@@H]2CCCC[C@@H]2N)nc1Nc1cnc2cc(N)ccc2c1 (relative stereo) .
Response: 65 to 130 nM

Prompt: Print THP-1 cells IC50 for CC(C)C[C@H](CN)Nc1nc(Nc2ccnc(-n3nccn3)c2)c(C(N)=O)cc1F .
Response: 65 to 130 nM
